biological target: Voltage-gated inwardly rectifying potassium channel KCNH2 (Homo sapiens); assay: Human Ether-a-go-go-Related Gene (hERG) channel small molecule antagonists: fluorescence cell-based qHTS assay (AID 1671200); settings: hERG-U2OS cells, FluxOR thallium flux fluorescence; series mostly up to 76.8 µM; also: nearly all actives have a fitted effect of over 50% in size
Records with an inconclusive call do not appear. Activity calls are given as the source filed them. Calls follow the shape of the dose curve; as a rule, active = well fitted inhibition curve with a large enough effect in the repeat runs; inconclusive = weak or mixed curves; inactive = flat fitted curve, though single readings scatter.
Possible outcomes: 1.0 for active, 0.0 for inactive

[[record]]
compound = "Cc1c(N)cccc1[N+](=O)[O-]"
study_system = "Voltage-gated inwardly rectifying potassium channel KCNH2 (Homo sapiens)"
label = 0.0

[[record]]
compound = "CCO[C@H](Cc1ccc(OCCc2ccc(OS(C)(=O)=O)cc2)cc1)C(=O)O"
study_system = "Voltage-gated inwardly rectifying potassium channel KCNH2 (Homo sapiens)"
label = 0.0

[[record]]
compound = "Nc1ccc([N+](=O)[O-])c(C(F)(F)F)c1"
study_system = "Voltage-gated inwardly rectifying potassium channel KCNH2 (Homo sapiens)"
label = 0.0

[[record]]
compound = "CC/C=C\\CCOC(=O)CC"
study_system = "Voltage-gated inwardly rectifying potassium channel KCNH2 (Homo sapiens)"
label = 0.0

[[record]]
compound = "CN(C)CCOC(c1ccccc1)c1ccc(Br)cc1 (stereo not given)"
study_system = "Voltage-gated inwardly rectifying potassium channel KCNH2 (Homo sapiens)"
label = 1.0

[[record]]
compound = "CN(C)CCCN1c2ccccc2Sc2ccccc21"
study_system = "Voltage-gated inwardly rectifying potassium channel KCNH2 (Homo sapiens)"
label = 1.0

[[record]]
compound = "COc1cc(C(=O)OCCCN2CCCN(CCCOC(=O)c3cc(OC)c(OC)c(OC)c3)CC2)cc(OC)c1OC"
study_system = "Voltage-gated inwardly rectifying potassium channel KCNH2 (Homo sapiens)"
label = 1.0

[[record]]
compound = "CCn1cc(C(=O)O)c(=O)c2cnc(N3CCNCC3)nc21"
study_system = "Voltage-gated inwardly rectifying potassium channel KCNH2 (Homo sapiens)"
label = 0.0

[[record]]
compound = "CCC(CC)Nc1ccc(C)c(C)c1"
study_system = "Voltage-gated inwardly rectifying potassium channel KCNH2 (Homo sapiens)"
label = 0.0

[[record]]
compound = "CCCCCCOC(=O)NC(=N)c1ccc(NCc2nc3cc(C(=O)N(CCC(=O)OCC)c4ccccn4)ccc3n2C)cc1"
study_system = "Voltage-gated inwardly rectifying potassium channel KCNH2 (Homo sapiens)"
label = 1.0

[[record]]
compound = "C[C@H](CCC(=O)O)[C@H]1CC[C@H]2[C@@H]3CC[C@@H]4C[C@H](O)CC[C@]4(C)[C@H]3C[C@H](O)[C@]12C"
study_system = "Voltage-gated inwardly rectifying potassium channel KCNH2 (Homo sapiens)"
label = 0.0

[[record]]
compound = "CCC(C)O (stereo not given)"
study_system = "Voltage-gated inwardly rectifying potassium channel KCNH2 (Homo sapiens)"
label = 0.0

[[record]]
compound = "CCCCCC[C@@H](O)C/C=C\\CCCCCCCC(=O)OC"
study_system = "Voltage-gated inwardly rectifying potassium channel KCNH2 (Homo sapiens)"
label = 0.0

[[record]]
compound = "CCCCCCCCCCCCCCOS(=O)(=O)O"
study_system = "Voltage-gated inwardly rectifying potassium channel KCNH2 (Homo sapiens)"
label = 0.0

[[record]]
compound = "CC(=O)c1cccc([N+](=O)[O-])c1"
study_system = "Voltage-gated inwardly rectifying potassium channel KCNH2 (Homo sapiens)"
label = 0.0

[[record]]
compound = "ClCCOCCOCCCl"
study_system = "Voltage-gated inwardly rectifying potassium channel KCNH2 (Homo sapiens)"
label = 0.0

[[record]]
compound = "C[C@@H]1C[C@H]2[C@@H]3CCC4=CC(=O)C=C[C@]4(C)[C@@]3(F)[C@@H](O)C[C@]2(C)[C@@]1(O)C(=O)COC(=O)c1ccncc1"
study_system = "Voltage-gated inwardly rectifying potassium channel KCNH2 (Homo sapiens)"
label = 0.0

[[record]]
compound = "Cc1cccc(C)c1NC(=O)CN(CC(=O)O)CC(=O)O"
study_system = "Voltage-gated inwardly rectifying potassium channel KCNH2 (Homo sapiens)"
label = 0.0

[[record]]
compound = "COS(=O)(=O)C(F)(F)F"
study_system = "Voltage-gated inwardly rectifying potassium channel KCNH2 (Homo sapiens)"
label = 0.0

[[record]]
compound = "Nc1cccc(S(=O)(=O)c2cccc(N)c2)c1"
study_system = "Voltage-gated inwardly rectifying potassium channel KCNH2 (Homo sapiens)"
label = 0.0

[[record]]
compound = "O=C(O)c1ccccc1Cl"
study_system = "Voltage-gated inwardly rectifying potassium channel KCNH2 (Homo sapiens)"
label = 0.0

[[record]]
compound = "COc1ccc(C)cc1[N+](=O)[O-]"
study_system = "Voltage-gated inwardly rectifying potassium channel KCNH2 (Homo sapiens)"
label = 0.0

[[record]]
compound = "O=C(Nc1ccccc1)c1ccccc1O"
study_system = "Voltage-gated inwardly rectifying potassium channel KCNH2 (Homo sapiens)"
label = 0.0

[[record]]
compound = "CCCCO"
study_system = "Voltage-gated inwardly rectifying potassium channel KCNH2 (Homo sapiens)"
label = 0.0

[[record]]
compound = "CN1CCN(C(c2ccccc2)c2ccccc2)CC1"
study_system = "Voltage-gated inwardly rectifying potassium channel KCNH2 (Homo sapiens)"
label = 0.0

